# measurementTarget: FXR (Homo sapiens (Human))
# Sequence (Q96RI1 262-486): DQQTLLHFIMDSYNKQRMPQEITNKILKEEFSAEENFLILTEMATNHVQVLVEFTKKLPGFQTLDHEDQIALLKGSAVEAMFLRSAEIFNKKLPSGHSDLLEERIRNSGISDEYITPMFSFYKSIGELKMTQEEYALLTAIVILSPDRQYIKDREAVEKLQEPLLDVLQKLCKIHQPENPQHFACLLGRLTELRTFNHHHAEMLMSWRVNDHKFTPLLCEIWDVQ
# protocol: transient human FXR/Gal4-luciferase reporter assay
# Format: cell-based
# details: Gal4-hFXR LBD fusion in HEK293 reporter cells; relative to 8 μM GW-4064
Criterion: EC50 strictly less than 200 nM. Met: label 1. Not met: label 0.

q: In plain terms, does O=C(O)c1cc2ccc(C#CC34CCC(OCc5c(-c6c(Cl)cncc6Cl)noc5C5CC5)(CC3)CC4)cc2c(NC2CC2)n1 [Example 551] come in under 200 nM for EC50?
a: label 0

q: Does this molecule meet the criterion EC50 < 200 nM? O=C(O)c1c(F)c(OCC23CCC(OCc4c(-c5c(Cl)cncc5Cl)noc4C4CC4)(CC2)CC3)nn1CC1CC1 [Example 535]
a: label 1

q: Lab note: confirm whether the reported EC50 for this molecule is below 200 nM, equality not counting. molecule: O=C(O)c1cccc(COCC23CCC(OCc4c(-c5c(Cl)cncc5Cl)noc4C4CC4)(CC2)CC3)c1 [Example 525]
a: label 1

q: Determine if Cn1nc(NCC23CCC(OCc4c(-c5c(Cl)cccc5Cl)noc4C4CC4)(CC2)CC3)cc1C(=O)O [Example 581] shows EC50 strictly lower than 200 nM.
a: label 0

q: # check: EC50 < 200 nM for COc1ncc(C(=O)O)cc1C#CC12CCC(OCc3c(-c4c(Cl)cncc4Cl)noc3C3CC3)(CC1)CC2 [Example 563]
a: label 1
